Taken from patent US20240279144A1.

Assay: FTIR P═O stretching frequency in acetonitrile as a gauge of basicity
Format: physicochemical
Conditions: lower frequency = higher basicity
For each record, write down the corresponding P═O, cm^−1.

Recorded P═O, cm^−1, per entry:
| compound | P═O, cm^−1 |
| --- | --- |
| O=P(CCCP(=O)(c1ccccc1)c1ccccc1)(c1ccccc1)c1ccccc1 [Bis-DPPPrO] | 1,180.0 cm^−1 |
| O=P(CP(=O)(c1ccccc1)c1ccccc1)(c1ccccc1)c1ccccc1 [Bis-DPPMeO2, bis(diphenylphosphino)methane dioxide] | 1,197.7 cm^−1 |
| O=P(CCCCCP(=O)(c1ccccc1)c1ccccc1)(c1ccccc1)c1ccccc1 [Bis-DPPPeO2, bis(diphenylphosphino)pentane dioxide] | 1,178.2 cm^−1 |
| O=P(CCCP(=O)(c1ccccc1)c1ccccc1)(c1ccccc1)c1ccccc1 [Bis-DPPPrO2, bis(diphenylphosphino)propane dioxide] | 1,180.8 cm^−1 |

# return P═O, cm^−1 for each item in the list
1. O=P(CP(=O)(C1CCCCC1)C1CCCCC1)(C1CCCCC1)C1CCCCC1 [Bis-DiCyPMeO2]
2. O=P(c1ccccc1)(c1ccccc1)c1ccccc1 [TPPO, triphenylphosphine oxide, reference compound]

1: 1,160.1 cm^−1; 2: 1,191.6 cm^−1
